target: Hexose transporter 1 (Plasmodium falciparum) (UniProt O97467); experiment: ST_JUDE_LEISH: Cytotoxicity at 2uM final concentration against transgenic Leishmania Mexicana promastigotes LmPfHT that are glucose transport deficient and complemented with the Plasmodium falciparum hexose transporter. Activity is measured by DNA content using SYBR green in vitro; format: functional
OBSERVABLE: inhibition (%)
Numbers only, in %.

- COMPOUND: "Cc1nc(-c2ccc(-c3ccc(C(=O)Nc4ccc(-n5ccnc5)c(N5CCN(C)CC5)c4)cc3)c(C)c2)no1"
  EXPERIMENTAL_TARGET: "Hexose transporter 1 (Plasmodium falciparum) (UniProt O97467)"
  inhibition, %: 2.86
- COMPOUND: "Cn1cncc1C(=O)Nc1cccc(-c2ccc(-c3nc4cc(F)ccc4[nH]3)s2)c1"
  EXPERIMENTAL_TARGET: "Hexose transporter 1 (Plasmodium falciparum) (UniProt O97467)"
  inhibition, %: 3.3
- COMPOUND: "CCCC(CNCc1cccc(OC(F)(F)F)c1)CNc1cc(=O)c2ccccc2[nH]1 (centres undefined)"
  EXPERIMENTAL_TARGET: "Hexose transporter 1 (Plasmodium falciparum) (UniProt O97467)"
  inhibition, %: 3.46
- COMPOUND: "CCCCc1cc(NCc2ccncc2)nc(Nc2ccc(OC)cc2)n1"
  EXPERIMENTAL_TARGET: "Hexose transporter 1 (Plasmodium falciparum) (UniProt O97467)"
  inhibition, %: 5.76
- COMPOUND: "COc1cc2c(cc1OCCN1CCC(N3CCCCC3)CC1)N(C(=O)/C=C/c1ccccc1Cl)CC2"
  EXPERIMENTAL_TARGET: "Hexose transporter 1 (Plasmodium falciparum) (UniProt O97467)"
  inhibition, %: 1.79

For each of the compounds below, state inhibition.
1. O=C(Cc1cccc(Cl)c1)Nc1ccc(N2CCC(NCc3ccc4ncccc4c3)CC2)cc1
2. O=C(/C=C/c1ccc(Cl)c(Cl)c1)NCCCCCN1CCC(NC(=O)NCCc2ccccc2)CC1
3. CC(C)NCc1ccc(-c2ccc(NC(=O)c3cccc(Cl)c3)cc2)cc1
4. CC(=O)c1cccc(Nc2nc3ccc(OCc4cc(Cl)cc(Cl)c4)c(C#N)c3[nH]2)c1

Reply:
1: 13.6; 2: 1.69; 3: -1.18; 4: 2.38
